Test system: male CF-1 mice
Experiment: Lethality in mice (median lethal concentration LC50)
Type: in vivo, mouse (male CF-1)
Settings: inhalation, 5 min
testReadout: MOUSE LC50 (VOL. %)
Number only, in VOL. %; omit the unit.

Query :: Endpoint output: MOUSE LC50 of COCC(F)(F)C(F)(F)F . Value?
Result :: 16

Query :: Next up: FC(F)OC(F)(C(F)F)C(F)F
Result :: 5.3

Query :: Next up: COC(C(F)(F)F)C(F)(F)F
Result :: 9.0

Query :: Next up: COCC(F)(F)C(F)F
Result :: 7.0

###

Tested on: male CF-1 mice
Assay: Convulsions in mice, 5 min inhalation exposure to test compound in air
Type: in vivo, mouse (male CF-1)
Conditions: mouse, inhalation, 5 min
Kindly state MOUSE CONVULSANT CONC., VOL. % for each of the entries shown.

Query :: Endpoint output: MOUSE CONVULSANT CONC., VOL. % of FCOCC(F)(F)C(F)(F)F [V] . Value?
Result :: 1.5 VOL. %

Query :: Next up: FC(F)OC(F)(C(F)F)C(F)F [IV]
Result :: 1.2 VOL. %

Query :: Next up: FC(F)OCC(F)(F)C(F)(F)F [II]
Result :: 1.4 VOL. %

Query :: Next up: FC(F)C(F)(F)COC(F)(F)F [VI]
Result :: ≤ 0.5 VOL. %

Query :: Next up: FC(F)OCC(F)(F)C(F)F [I]
Result :: 1.0 VOL. %

Query :: Next up: FC(F)OC(F)(F)C(F)C(F)(F)F (stereo not drawn) [III]
Result :: 2.0 VOL. %
